- assay_notes: Bioavailability of mequitazine administered by oral route
- condition_info: in vivo
quantity_name: bioavailability

The compound identified as c1ccc2c(c1)Sc1ccccc1N2CC1CN2CCC1CC2 (stereo not shown) [mequitazine] registered its bioavailability at ~0.3%
